Listed here are binders together with their documented standardized gMFI.
Target: 5A
Assay: flow cytometry on peptide-pulsed T2 cells, scFv 100 nM
endpoint.name: standardized gMFI

NYA-2045 (scFv) scFv: GEVQLVESGGGLVQPGGSLRLSCAASGFSIRSYDIHWVRLAPGKGLEWVATISYDGSQKYYADSVKGRFTISRDESKNTLYLQMNSLRAEDTAVYHCARGSSGHYEAFDIWGQGTLVTVSSGGGGSGGGGSGGGGSQSVLTQPPSASGTPGQRVTISCSGSSSNIGNWYVSWYQQLPGTAPKLLIYDNNKRPSGVPDRFSGSKSGTSASLAISGLQSEDEADYYCGTWDSSLSAPWVFGGGTKLTVLGAAAGAGGDYKDDDDKGAAAHHHHHH; 0.94
NYA-2035 (scFv) scFv: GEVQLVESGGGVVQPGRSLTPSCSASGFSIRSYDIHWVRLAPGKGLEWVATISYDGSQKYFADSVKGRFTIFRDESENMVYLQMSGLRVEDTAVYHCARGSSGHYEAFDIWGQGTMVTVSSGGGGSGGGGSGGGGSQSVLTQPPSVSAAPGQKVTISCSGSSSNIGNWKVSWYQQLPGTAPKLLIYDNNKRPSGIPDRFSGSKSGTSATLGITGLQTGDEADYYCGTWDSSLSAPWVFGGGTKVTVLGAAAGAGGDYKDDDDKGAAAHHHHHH; 2.27
NYA-2023 (scFv) scFv: GEVQLVESGGGVVQPGRSLTPSCSASGFSIRSYDIHWVRQAPGKGLEWVATISYDGSQKYFADSVKGRFTIFRDESENMVYLQMSGLRVEDTAVYHCARGSSGHYEAFDIWGQGTMVTVSSGGGGSGGGGSGGGGSQSVLTQPPSVSAAPGQKVTISCSGSSSNIGNWYVSWYQQLPGTAPKLLIYDNNKRPSGIPDRFSGSKSGTSATLGITGLQTGDEADYYCGTWDSSLSAPWVFGGGTKVTVLGAAAGAGGDYKDDDDKGAAAHHHHHH; 1.21
NYA-2143 (scFv) scFv: GEVQLVESGGGVVQPGRSLTPSCSASGFSIRSYDIHWVRLAPGKGLEWVATISYDGSQKYFADSVKGRFTIFRDESENMVYLQMSGLRVEDTAVYHCARGSSGHYEAFDIWGQGTMVTVSSGGGGSGGGGSGGGGSQSVLTQPPSVSAAPGQKVTISCSGSSSNIGNWYVSWYQRLPGTAPKLLIYDNNKRPSGIPDRFSGSKSGTSATLGITGLQTGDEADYYCGTWDSSLSAPWVFGGGTKVTVLGAAAGAGGDYKDDDDKGAAAHHHHHH; 4.3
NYA-2044 (scFv) scFv: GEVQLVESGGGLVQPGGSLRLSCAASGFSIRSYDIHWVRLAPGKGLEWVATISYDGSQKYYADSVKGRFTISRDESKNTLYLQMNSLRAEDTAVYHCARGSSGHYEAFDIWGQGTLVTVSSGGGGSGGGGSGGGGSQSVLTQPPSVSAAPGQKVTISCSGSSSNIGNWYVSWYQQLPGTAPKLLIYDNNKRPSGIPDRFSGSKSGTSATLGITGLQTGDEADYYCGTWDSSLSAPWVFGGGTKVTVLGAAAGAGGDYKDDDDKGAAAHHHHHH; 2.2
